# Test system: soybean
# Assay: Test B pre/postemergence soybean
# Format: in vivo, Glycine max
# Condition Summary: Rate 500 g/ha, Postemergence; scale 0 to 10
Experimental Readout: Soybean plant response rating
Give the value as a plain number.

{"Compound String": "CCc1cccc(C)c1-n1c(=O)on(C(=O)N(c2ccc(F)cc2)C(C)C)c1=O", "System Under Test": "soybean", "Soybean plant response rating": 3}

Asked: Would you kindly share the measured Soybean plant response rating for "C=C(C)CCn1c(=O)on(C(=O)N(c2ccc(F)cc2)C(C)C)c1=O" ?
Given back: 7

Asked: Would you kindly share the measured Soybean plant response rating for "CC(C)N(C(=O)n1oc(=O)n(C(C)C)c1=O)c1ccc(F)cc1" ?
Given back: 8

Asked: Would you kindly share the measured Soybean plant response rating for "Cc1nc(C)c(Cn2c(=O)on(C(=O)N(c3ccc(F)cc3)C(C)C)c2=O)s1" ?
Given back: 3

Asked: Would you kindly share the measured Soybean plant response rating for "CC(C)N(C(=O)n1oc(=O)n(Cc2ccccc2Cl)c1=O)c1ccc(F)cc1" ?
Given back: 5

Asked: Would you kindly share the measured Soybean plant response rating for "COc1nc(OC)nc(N(C(=O)n2oc(=O)n(-c3ccccc3C)c2=O)C(C)C)n1" ?
Given back: 0
